Listed here are molecules together with their documented Selectivity CB2.
- TESTED_SYSTEM: human CB2 receptor (Homo sapiens)
- Construct: host or cells: CHO-K1 (Chinese hamster ovary) cells, stably transfected; membranes prepared in house
- Sequence (P34972 whole entry): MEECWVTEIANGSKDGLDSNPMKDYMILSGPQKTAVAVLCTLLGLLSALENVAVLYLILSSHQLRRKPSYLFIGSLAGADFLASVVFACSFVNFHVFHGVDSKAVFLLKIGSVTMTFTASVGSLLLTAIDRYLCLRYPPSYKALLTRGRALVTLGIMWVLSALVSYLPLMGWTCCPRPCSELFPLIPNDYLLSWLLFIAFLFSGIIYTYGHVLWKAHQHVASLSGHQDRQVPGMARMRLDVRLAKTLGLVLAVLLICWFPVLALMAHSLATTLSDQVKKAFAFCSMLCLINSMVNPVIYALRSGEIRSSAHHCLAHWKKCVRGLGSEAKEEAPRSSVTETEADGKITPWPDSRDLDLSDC
- PROTOCOL_TEXT: CB2 radioligand competitive binding assay ([3H]CP 55,940 displacement)
- PROTOCOL_CONDITIONS: fold difference between CB1 and CB2 binding, printed in column of receptor with higher affinity; 1.00 in both = same affinity
OBSERVATION_TYPE: Selectivity CB2

- CCCCCc1cc(OCN(C(=O)OC)c2ccccc2)c(-c2cccc(C)c2)c(OCN(C(=O)OC)c2ccccc2)c1 [14′a]: 4.40
- C=C(C)C1CCC(C)=CC1c1c(O)cc(CCCCC)cc1OCOC1CCCCC1 (stereo not shown) [Compound 18d]: 3.23
- C=C(C)C1CCC(C)=CC1c1c(OCN(C(=O)OC)c2ccccc2)cc(C(C)(C)CCCCCC)cc1OCN(C(=O)OC)c1ccccc1 (stereo not shown) [20′d]: 1.25
- CCCCCc1cc(O)c(-c2cccc(C)c2)c(OCOCC)c1 [Compound 17a]: 5.20
- C=C(C)C1CCC(C)=CC1c1c(OCOC(=O)C(C)(C)C)cc(C(C)(C)CCCCCC)cc1OCOC(=O)C(C)(C)C (stereo not shown) [21′d]: 13.33
- CCCCCc1cc(OCOCCOC)c(C2C=C(C)CCC2)c(OCOCCOC)c1 (stereo not shown) [2′c]: 6.38
- CCCCCc1cc(OCOC(=O)C(C)(C)C)c(C2C=C(C)CCC2)c(OCOC(=O)C(C)(C)C)c1 (stereo not shown) [8′c]: 6.38
- CCCCCc1cc(O)c(-c2cccc(C)c2)c(OCOC(=O)C(C)(C)C)c1 [Compound 8a]: 9.39
- C=C(C)[C@@H]1CCC(C)=C[C@H]1c1c(O)cc(CCCCC)cc1OCOC(=O)OCC [Compound 5d]: 2.00
- C=C(C)C1CCC(C)=CC1c1c(OCOC2CCCCC2)cc(CCCCC)cc1OCOC1CCCCC1 (stereo not shown) [18′d]: 1.00

Where do the numbers come from? From patent US12630492B2.
